// reported inhibition at 5 µM for each item listed
System: HeLa
Test: Antiproliferative activity against human HeLa cells at 5 uM incubated for 48 hrs by MTT assay relative to control
Assay type: functional
// return numeric value only (unit: %, not printed)

CC(C)(CN1C(=O)C(Cl)=C(Cl)C1=O)CN1C(=O)C(Cl)=C(Cl)C1=O = 69.1
COc1ccc(Nc2nc(C(=O)c3cccc(OC)c3)nc3ccccc23)cc1 = 40.1
COc1ccc(Nc2nc([C@@H](N)C(C)C)nc3ccccc23)cc1 = 9.3
COc1ccc(N(C)c2nc(C(=O)c3ccccc3)nc3ccc(F)cc23)cc1 = 37.8
Cc1ccc(Nc2nc(C(=O)c3ccc(F)cc3)nc3ccccc23)c(C(=O)O)c1 = 42.7
COC(=O)c1ccc(Nc2nc(C(=O)c3cccc(OC)c3)nc3ccccc23)cc1OC = 37.7

Exercise: Request - read-out inhibition at 5 µM | tested on HeLa | compound `CC(C)[C@H](N)c1nc(Nc2ccc(OC(F)(F)F)cc2)c2ccccc2n1`
Solution: 2.6

Exercise: Give HeLa inhibition at 5 µM for `COc1cc(N2CCNCC2)ccc1Nc1nc(C(=O)c2ccc(F)cc2)nc2ccccc12`
Solution: 1.7

Exercise: Please state recorded inhibition at 5 µM (tested on HeLa) of `CC(C)[C@H](N)c1nc(Nc2ccc(N3CCOCC3)cc2)c2ccccc2n1`
Solution: 6.5

Exercise: Test system HeLa; read-out inhibition at 5 µM; what value for `CCOC(=O)c1c(C)nc(-c2ccc(N(C)c3nc(C(=O)c4ccccc4)nc4ccc(F)cc34)cc2)n1C` ?
Solution: 4

Exercise: What inhibition at 5 µM appears in the records for this compound with HeLa? `COc1ccc(N(C)c2nc(C(F)(F)c3cccc(OC)c3)nc3ccccc23)cc1`
Solution: 47.8

Exercise: Give inhibition at 5 µM (HeLa) of the following compound: `CCOC(=O)c1[nH]c(-c2ccc(Nc3nc(C(=O)c4ccccc4)nc4ccc(F)cc34)cc2)nc1C`
Solution: 34.9

====

System: A549
Assay: Antiproliferative activity against human A549 cells at 5 uM incubated for 48 hrs by MTT assay relative to control
Type: functional
parameter: inhibition at 5 µM (%)
Answer with a number only, understood to be in %.

CN(c1ccc(N2CCOCC2)cc1)c1nc(C(=O)c2ccccc2)nc2ccc(F)cc12 = 3.3
COC(=O)c1ccc(Nc2nc(C(=O)c3ccc(F)cc3)nc3ccccc23)cc1OC = 8.5

Exercise: Item `O=C(c1ccc(F)cc1)c1nc(Nc2ccc(N3CCNCC3)c(F)c2)c2ccccc2n1` has what recorded inhibition at 5 µM?
Solution: 4.1

Exercise: Given the entry `CCOC(=O)c1[nH]c(-c2ccc(Nc3nc(C(=O)c4ccccc4)nc4ccc(F)cc34)cc2)nc1C` , report its measured inhibition at 5 µM.
Solution: 40.6

Exercise: Entry under review: `COc1cc(N2CCNCC2)ccc1N(C)c1nc(C(=O)c2ccc(F)cc2)nc2ccccc12` . Reported inhibition at 5 µM?
Solution: 11.9

Exercise: Form field: reported inhibition at 5 µM of `C=CC(=O)Nc1cccc(Nc2nc(C(=O)c3ccccc3)nc3ccc(F)cc23)c1`
Solution: 7.9

Exercise: Given the compound `CC(C)[C@H](N)c1nc(N(C)c2ccc(OC(F)(F)F)cc2)c2ccccc2n1` , what is its reported inhibition at 5 µM?
Solution: 56.2

Exercise: So what does the record say about inhibition at 5 µM for `COc1ccc(N(C)c2nc(C(F)(F)c3cccc(OC)c3)nc3ccccc23)cc1` ?
Solution: 52.7

Exercise: Given the entry `COc1ccc(N(C)c2nc(C(=O)c3cccc(OC)c3)nc3ccccc23)cc1` , report its measured inhibition at 5 µM.
Solution: 52
